The reported measurements were obtained from paper PMC9482650.

- measured.on: MAGI1_2, Q96QZ7
- Sequence (Q96QZ7 456-580): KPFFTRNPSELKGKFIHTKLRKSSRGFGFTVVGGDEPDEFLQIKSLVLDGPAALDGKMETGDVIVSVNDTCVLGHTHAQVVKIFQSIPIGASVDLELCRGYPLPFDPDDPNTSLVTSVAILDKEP
- protocol.text: holdup assay
- Design: key: below the threshold = too weak to quantify, mostly under pKd 3.1 to 4
- condition.summary: plain residues with an end cap or a label only (N-terminal biotin on a linker: ado-ado)
measurement.label: pKd

// known answers, use as guide
binder	result
SARSRLSSNL [HCN2, Q9UL51]	4.17
CLREWCDAFL [BANF1, O75531]	below the threshold
YLEPVLSSEL [ATP2A2, P16615;P16615-3]	below the threshold
TACCHSETVV [TGFA, P01135]	4.24
QSPANIYYKV [EFNB1, P52799]	below the threshold

Data request: Query pKd for TSSMRGMDAV [RSRC2, Q7L4I2]
Data returned: below the threshold
